# Test system: mpo:GFP zebrafish embryos (neutrophil migration to the wound site)
# EXPERIMENTAL_DETAILS: mpo:GFP zebrafish fin-clip neutrophil migration (inflammation) assay
# Type: in vivo
# SETTINGS: embryos survived/tested at the concentration given
RECORDED_METRIC: mpo:GFP inflammation n (survived/tested)

Observe how each entry below is paired with its result.
[[record]]
compound = "Nc1cccc2c1CN(C1CCC(=S)NC1=O)C2=O (centres unmarked) [Compound 30]"
assay_result = "10/10"

[[record]]
compound = "O=C1c2ccccc2CN1c1ccc(C(F)(F)F)cc1 [Compound 68]"
assay_result = "5/15"

[[record]]
compound = "O=C1c2cccc(O)c2C(=O)N1c1nc2ccc(C(F)(F)F)cc2s1 [Compound 61]"
assay_result = "9/20"


mpo:GFP inflammation n (survived/tested) measured on O=C1c2ccccc2CN1c1nc2ccc(C(F)(F)F)cc2s1 [Compound 62] = 6/20

mpo:GFP inflammation n (survived/tested) measured on Nc1ccc2c(c1)C(=O)N(C1CCC(=O)NC1=O)C2=O (centres unmarked) [Compound 11] = 16/22

mpo:GFP inflammation n (survived/tested) measured on O=C1c2ccccc2CN1C12CC3CC(CC1C3)C2 [Compound 73] = 7/13

mpo:GFP inflammation n (survived/tested) measured on Nc1cccc2c1CN(C13CC4CC(CC1C4)C3)C2=O [Compound 85] = 11/20

mpo:GFP inflammation n (survived/tested) measured on Nc1cccc2c1CN(C1CCC(=S)NC1=O)C2=S (centres unmarked) [Compound 32] = 6/15

mpo:GFP inflammation n (survived/tested) measured on O=C1CCC(N2Cc3ccccc3C2=O)C(=O)N1CSC(=S)NC1CCCCC1 (centres unmarked) [Compound 52] = 7/21

mpo:GFP inflammation n (survived/tested) measured on O=C1c2cccc([N+](=O)[O-])c2C(=O)N1c1nc2ccc(C(F)(F)F)cc2s1 [Compound 60] = 5/15

mpo:GFP inflammation n (survived/tested) measured on Nc1cccc2c1CN(C1C3CC4CC(C3)CC1C4)C2=O (centres unmarked) [Compound 83] = 6/23

mpo:GFP inflammation n (survived/tested) measured on Nc1ccc2c(c1)C(=O)N(C1CCC(=O)NC1=O)C2 (centres unmarked) [Compound 34] = 7/9

###

# Tested on: RAW 264.7 cells
# EXPERIMENTAL_DETAILS: Cell viability (CellTiter 96 AQueous One) of LPS-challenged RAW 264.7 cells
# Type: cell-based, mouse
# Parameters: key: NS=not significant; a “+” sign=anti-inflammatory or increased cell numbers; a “−” sign=cell toxicity or pro-inflammatory
# SETTINGS: 10 μM
RECORDED_METRIC: Viability

[[record]]
molecule = "CC1(C)[C@@H]2CC[C@]1(C)[C@H](N1Cc3c(N)cccc3C1=O)C2"
assay_result = "+"

[[record]]
molecule = "O=C1c2ccccc2CN1CC12CC3CC(CC(C3)C1)C2"
assay_result = "NS"

[[record]]
molecule = "O=C1c2ccccc2CN1C1C2CC3CC(C2)CC1C3 (stereo not drawn)"
assay_result = "NS"

[[record]]
molecule = "CC1(C)[C@@H]2CC[C@]1(C)[C@@H](N1Cc3c(cccc3[N+](=O)[O-])C1=O)C2"
assay_result = "−"

[[record]]
molecule = "O=C1c2cccc([N+](=O)[O-])c2CN1C1C2CC3CC(C2)CC1C3 (stereo not drawn)"
assay_result = "−"


Turning now to a further record.
Viability measured on CC1(C)[C@@H]2CC[C@H](CN3Cc4c(N)cccc4C3=O)[C@H]1C2 = NS
